Tested on: 429239-143-T-J1-PDC complex spheroid viability;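 also: luminescence signal used as surrogate measure of viable cells; spheroids exposed to compounds for seven days before readout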
Protocol Details: Anticancer human tumor 429239-143-T-J1-PDC patient-derived small cell lung carcinoma cell line growth inhibition [POLQ]
Condition Set: curve of first compound; second compound 0.316 µM
The reader will find reported log10 IC50 values listed item by item below.
Please be aware that the numbers have been log10-transformed from IC50 in µM.

Here's what some known entries look like.
Compound	Reported Value
COc1cc(C2c3cc4c(cc3C(OC3OC5COC(C)OC5C(O)C3O)C3COC(=O)C23)OCO4)cc(OC)c1O (stereo not given) + COC1C(OC(N)=O)C(O)C(Oc2ccc3c(O)c(NC(=O)c4ccc(O)c(CC=C(C)C)c4)c(=O)oc3c2C)OC1(C)C	-0.38
CCc1cc2c(N3CCc4c(cc(Cn5ccnc5)cc4-c4cn(C)nc4C(F)(F)F)C3=O)cc(C)nc2c(OC)n1 + Nc1ccc(C#CCN(C(=O)Cc2ncc(C(F)(F)F)cc2C(F)(F)F)c2ccc(F)cc2)nn1	0.94
CCc1cc2c(N3CCc4c(cc(Cn5ccnc5)cc4-c4cn(C)nc4C(F)(F)F)C3=O)ccnc2c(OC)n1 + Nc1ccc(C#CCN(C(=O)Cc2ncc(C(F)(F)F)cc2C(F)(F)F)c2ccc(F)cc2)nn1	0.90
COc1ccc([C@@H](O)c2cc(-c3ncnc4cc(N5CCOCC5)ccc34)c(F)cc2Cl)nn1 + Nc1ccc(C#CCN(C(=O)Cc2ncc(C(F)(F)F)cc2C(F)(F)F)c2ccc(F)cc2)nn1	0.95
CC(=O)O[C@H]1C(=O)[C@@]2(C)[C@H]([C@H](OC(=O)c3ccccc3)[C@]3(O)C[C@H](OC(=O)[C@H](O)[C@@H](NC(=O)c4ccccc4)c4ccccc4)C(C)=C1C3(C)C)[C@]1(OC(C)=O)CO[C@@H]1C[C@@H]2O + Nc1ccc(C#CCN(C(=O)Cc2ncc(C(F)(F)F)cc2C(F)(F)F)c2ccc(F)cc2)nn1	-1.85

In: Give a short answer stating reported log10 IC50 for CC1COCCN1c1cc(-c2ccnn2C)c2ccnc(-c3ccn[nH]3)c2n1 (stereo not given) + COC1C(OC(N)=O)C(O)C(Oc2ccc3c(O)c(NC(=O)c4ccc(O)c(CC=C(C)C)c4)c(=O)oc3c2C)OC1(C)C .
Out: -1.15

In: Give a short answer stating reported log10 IC50 for CC[C@@]1(O)C(=O)OCc2c1cc1n(c2=O)Cc2cc3c(CN(C)C)c(O)ccc3nc2-1 + Nc1ccc(C#CCN(C(=O)Cc2ncc(C(F)(F)F)cc2C(F)(F)F)c2ccc(F)cc2)nn1 .
Out: -1.75

In: Give a short answer stating reported log10 IC50 for COc1ccc([C@@H](O)c2cc(-c3ncnc4cc(N5CCOCC5)ccc34)c(F)cc2Cl)nn1 + COC1C(OC(N)=O)C(O)C(Oc2ccc3c(O)c(NC(=O)c4ccc(O)c(CC=C(C)C)c4)c(=O)oc3c2C)OC1(C)C .
Out: 0.60

In: Give a short answer stating reported log10 IC50 for C=CCn1c(=O)c2cnc(Nc3ccc(N4CCN(C)CC4)cc3)nc2n1-c1cccc(C(C)(C)O)n1 + Cc1cccc(N(C)C(=O)C2C(O)CCN2c2nc(C)cc(C(F)(F)F)c2C#N)c1 .
Out: -0.23
